test system: HCC1428 breast cancer cell line; assay: Growth inhibition by lapatinib (Cell Titer-Glo); assay type: cell-based; settings: Homo sapiens, 72 hours culture, read-out: IC50
pIC50: −log10 of the molar value.
measurement_type: pIC50

Prompt line: Supply pIC50 value. Item: "CS(=O)(=O)CCNCc1ccc(-c2ccc3ncnc(Nc4ccc(OCc5cccc(F)c5)c(Cl)c4)c3c2)o1"
Response line: < 5.00

###

tested on: ZR-75-30 breast cancer cell line; assay: Growth inhibition by lapatinib (Cell Titer-Glo); type: cell-based; conditions: Homo sapiens, 72 hours culture, read-out: IC50
measurement_type: pIC50
Interpret pIC50 as the negative base-10 log of the concentration measured in mol/L.

Prompt line: Supply pIC50 value. Item: CS(=O)(=O)CCNCc1ccc(-c2ccc3ncnc(Nc4ccc(OCc5cccc(F)c5)c(Cl)c4)c3c2)o1 [lapatinib]
Response line: 6.68
